Please respond with reported pKd for every item in the list.
Molecular target: T1, H6NA3 (UniProt P06731 35-144; P06731 499-590, limits assumed)
T1 construct: domain: N domain;domain: A3 domain; recombinant truncated target
T1 sequence: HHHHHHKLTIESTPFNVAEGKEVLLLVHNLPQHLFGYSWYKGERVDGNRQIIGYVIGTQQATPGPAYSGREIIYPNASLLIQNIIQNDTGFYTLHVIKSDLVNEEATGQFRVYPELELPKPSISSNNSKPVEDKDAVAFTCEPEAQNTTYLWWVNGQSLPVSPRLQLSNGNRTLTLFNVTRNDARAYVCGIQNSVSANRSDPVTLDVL
Assay: fluorescence anisotropy, competition with peptide from Isolate 12-H12
Description: Dissociation constants were determined using fluorescence anisotropy, through direct binding measurements to either NA-3 or CEA in PBS with 0.01% TWEEN 20. In direct binding assays, the concentration of the fluorescein-labeled peptide is held constant and the concentration of NA3 is varied. […] KD standard error values are calculated from the nonlinear regression (SIGMAPLOT, SPSS Science, Chicago, Ill.).
Ends that are not written are not given here. fluorescein = fluorescein label attached through NHS-fluorescein to the ε-amino side group of the C-terminal lysine
Numbers only, as −log10 of the molar value.

Take a look at these entries with their results.
DWVCEFFKDQWFCNILAPGGEGGGSK(fluorescein)-NH2 (not fully specified (bridges); cysteine pairing not given here; also: fluorescein on C-terminal Lys ε-amino in labelled aliquots, synthetic) [315A-18-E02 synthetic peptide]	6.51
DWVCEFIKSQWFCNVLAPGGEGGGSK(fluorescein)-NH2 (not fully specified (bridges); cysteine pairing not given here; also: fluorescein on C-terminal Lys ε-amino in labelled aliquots, synthetic) [315A-17-G08 synthetic peptide]	6.80
DWVCEWLKMQWACNILAPGGEGGGSK(fluorescein)-NH2 (not fully specified (bridges); cysteine pairing not given here; also: fluorescein on C-terminal Lys ε-amino in labelled aliquots, synthetic) [315A-17-B01 synthetic peptide]	6.05
DWVCEYFKNQWFCNVLAPGGEGGGSK-NH2 (not fully specified (residue 26, bridges); cysteine pairing not given here; also: fluorescein only on labelled aliquots, synthetic; also called DX306) [304A-12-H12 synthetic peptide]	6.47
DWVCEIVKNQWICNPLAPGGEGGGSK(fluorescein)-NH2 (not fully specified (bridges); cysteine pairing not given here; also: fluorescein on C-terminal Lys ε-amino in labelled aliquots, synthetic) [315A-18-E01 synthetic peptide]	6.64

**Query** Look up pKd: DWVCEWLKPQWYCNSLAPGGEGGGSK(fluorescein)-NH2 (not fully specified (bridges); cysteine pairing not given here; also: fluorescein on C-terminal Lys ε-amino in labelled aliquots, synthetic) [315A-17-B12 synthetic peptide]
**Result** 6.19
